A collection of compounds and their measured pIC50
- target or system: recombinant human TTK protein (Homo sapiens (Human), UniProt P33981)
- Sequence (P33981 whole entry): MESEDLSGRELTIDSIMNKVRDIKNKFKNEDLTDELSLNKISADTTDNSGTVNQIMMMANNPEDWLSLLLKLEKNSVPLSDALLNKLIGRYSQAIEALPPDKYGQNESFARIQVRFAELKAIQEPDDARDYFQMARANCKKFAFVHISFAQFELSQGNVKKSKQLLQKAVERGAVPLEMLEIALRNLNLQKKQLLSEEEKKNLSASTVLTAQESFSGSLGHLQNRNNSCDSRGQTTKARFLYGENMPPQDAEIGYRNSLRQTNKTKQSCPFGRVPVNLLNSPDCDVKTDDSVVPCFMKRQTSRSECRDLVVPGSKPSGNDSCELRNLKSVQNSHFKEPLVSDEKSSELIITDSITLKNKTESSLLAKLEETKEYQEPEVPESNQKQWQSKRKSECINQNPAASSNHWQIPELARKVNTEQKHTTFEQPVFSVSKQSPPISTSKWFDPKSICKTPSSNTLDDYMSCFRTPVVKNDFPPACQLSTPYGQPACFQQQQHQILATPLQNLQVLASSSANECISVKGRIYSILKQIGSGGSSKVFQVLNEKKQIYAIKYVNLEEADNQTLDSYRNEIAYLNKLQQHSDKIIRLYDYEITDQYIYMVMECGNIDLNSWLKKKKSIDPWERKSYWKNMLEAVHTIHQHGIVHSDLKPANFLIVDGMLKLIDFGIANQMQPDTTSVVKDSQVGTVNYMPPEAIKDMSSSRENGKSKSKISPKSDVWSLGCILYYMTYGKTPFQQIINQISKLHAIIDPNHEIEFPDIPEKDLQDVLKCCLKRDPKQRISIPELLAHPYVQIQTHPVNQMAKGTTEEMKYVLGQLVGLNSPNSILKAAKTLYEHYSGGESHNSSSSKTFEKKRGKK
- test protocol: Evaluation of TTK activity inhibitory ability (scintillation counting)
- Assay type: biochemical
- conditions: TTK inhibitory activity; read-out: IC50
pIC50: −log10 of the molar value.

For orientation, consider the following solved cases.
structure_as_smiles=COc1cc(N2CCOCC2)ccc1Nc1nc(NC2CCCCC2)c2c(-c3ccc4[nH]cnc4c3)n[nH]c2n1 readout_name=pIC50 experimental_result="7.00 to 7.52"
structure_as_smiles=COc1cc(N2CCOCC2)ccc1Nc1nc(NC2CCOCC2)c2c(-c3ncco3)n[nH]c2n1 readout_name=pIC50 experimental_result="> 7.52"
structure_as_smiles=COc1cc(C(=O)N2CCN(C)CC2)ccc1Nc1nc(NC2CCCCC2)c2c(-c3cnn(C)c3)n[nH]c2n1 readout_name=pIC50 experimental_result="7.00 to 7.52"
structure_as_smiles=COc1cc(N2CCOCC2)ccc1Nc1nc(NC2CCOCC2)c2c(-c3cccnc3)n[nH]c2n1 readout_name=pIC50 experimental_result="> 7.52"
structure_as_smiles=COc1cc(C(=O)N2CCOCC2)ccc1Nc1nc(NC2CCCCC2)c2c(-c3cnn(C)c3)n[nH]c2n1 readout_name=pIC50 experimental_result="> 7.52"

# input Endpoint output: pIC50 of "COc1cc(N2CCOCC2)ccc1Nc1nc(NC2CCOCC2)c2c(-c3cnn(C)c3)n[nH]c2n1" . Value?
# output > 7.52

# input Given the entry "COc1cc(N2CCOCC2)ccc1Nc1nc(NC2CCCCC2)c2c(-c3ccc4nc(C)oc4c3)n[nH]c2n1" , report its measured pIC50.
# output 7.00 to 7.52

###

A collection of compounds and their measured IC50
- System: HCT116 colon cancer cell line
- test protocol: Cytotoxicity in TTK-expressed HCT116 cells
- Type: cell-based
- conditions: Homo sapiens, HCT-116, 120 h, 5 days

# input // map "COc1cc(N2CCOCC2)ccc1Nc1nc(NC2CCCCC2)c2c(-c3ccc4[nH]cnc4c3)n[nH]c2n1" to recorded IC50 (system: HCT116 colon cancer cell line)
# output < 150 nM

# input IC50 of COc1cc(N2CCOCC2)ccc1Nc1nc(NCC2CCCO2)c2c(-c3cnoc3)n[nH]c2n1 (stereo not shown) on HCT116 colon cancer cell line?
# output > 1000 nM

# input Quick check: IC50 on HCT116 colon cancer cell line, item "COc1cc(N2CCOCC2)ccc1Nc1nc(NC2CCCCC2)c2c(-c3cn(C)nn3)n[nH]c2n1" ?
# output < 150 nM

# input What is its IC50 for HCT116 colon cancer cell line? Entry: "COc1cc(N2CCOCC2)ccc1Nc1nc(NC2CCCCC2)c2c(-c3cncs3)n[nH]c2n1"
# output 150 to 500 nM

###

- target or system: recombinant human TTK protein (Homo sapiens (Human))
- test protocol: Evaluation of TTK activity inhibitory ability (scintillation counting)
- Type: biochemical
- conditions: TTK inhibitory activity; read-out: IC50
readout name: IC50

Observe how each entry below is paired with its result.
molecule=CC(C)Oc1cc(N2CCOCC2)ccc1Nc1nc(NC2CCCCC2)c2c(-c3cnn(C)c3)n[nH]c2n1 readout_name=IC50 experimental_result="0.03 to 0.1 µM"
molecule=COc1cc(N2CCOCC2)ccc1Nc1nc(NC2CCCCC2)c2c(-c3cnco3)n[nH]c2n1 readout_name=IC50 experimental_result="< 0.03 µM"

# input If you can, please state the reported IC50 value of COc1cc(N2CCOCC2)ccc1Nc1nc(NCC2CCCO2)c2c(-c3cnoc3)n[nH]c2n1 (stereo not drawn) .
# output < 0.03 µM

# input Entry under review: "CNC(=O)c1ccc(Nc2nc(NC3CCCCC3)c3c(-c4cnn(C)c4)n[nH]c3n2)c(OC)c1" . Reported IC50?
# output < 0.03 µM

# input Need IC50 of "COc1cc(N2CCOCC2)ccc1Nc1nc(NC2CCCCC2)c2c(-c3n[nH]c(=O)o3)n[nH]c2n1" , thanks.
# output 0.03 to 0.1 µM

# input Item under review: "COc1cc(N2CCOCC2)ccc1Nc1nc(NC2CCCCC2)c2c(-c3cn(C)cn3)n[nH]c2n1" . Reported IC50?
# output 0.03 to 0.1 µM

# input Endpoint output: IC50 of "COc1cc(N2CCOCC2)ccc1Nc1nc(NC2CCOCC2)c2c(-c3ccn(C)n3)n[nH]c2n1" . Value?
# output < 0.03 µM

# input # IC50 lookup, item "COc1cc(N2CCOCC2)ccc1Nc1nc(NC2CCCCC2)c2c(-c3cnc[nH]3)n[nH]c2n1"
# output 0.03 to 0.1 µM

# input Quick one: IC50 for COc1cc(N2CCOCC2)ccc1Nc1nc(NCC2CCCO2)c2c(-c3cnn(C)c3)n[nH]c2n1 (stereo not drawn) ?
# output < 0.03 µM

# input I would be grateful if you could share the reported IC50 for "COc1cc(-c2nncn2C)ccc1Nc1nc(NC2CCOCC2)c2c(-c3cnco3)n[nH]c2n1" .
# output < 0.03 µM

# input Which IC50 is reported for this molecule? "COc1cc(N2CCOCC2)ccc1Nc1nc(NC2CCCCC2)c2c(-c3cccc(NS(C)(=O)=O)c3)n[nH]c2n1"
# output 0.03 to 0.1 µM

# input Give its IC50 value. Item: "COc1cc(N2CCOCC2)ccc1Nc1nc(NC2CCCCC2)c2c(-c3nnco3)n[nH]c2n1"
# output 0.03 to 0.1 µM

# input I would be grateful if you could share the reported IC50 for "COc1cc(N2CCOCC2)ccc1Nc1nc(Nc2ccccc2)c2c(-c3cnn(C)c3)n[nH]c2n1" .
# output < 0.03 µM

# input Look up IC50: "COc1cc(N2CCOCC2)ccc1Nc1nc(NC2CCCCC2)c2c(-c3ccco3)n[nH]c2n1"
# output 0.03 to 0.1 µM

# input Reported IC50 for "COc1cc(N2CCOCC2)ccc1Nc1nc(NC2CCOCC2)c2c(-c3cn(C)nn3)n[nH]c2n1" : what is it?
# output 0.03 to 0.1 µM

###

Attribute: IC50
- Test system: HCT116 colon cancer cell line
- test protocol: Cytotoxicity in TTK-expressed HCT116 cells
- Format: cell-based
- conditions: Homo sapiens, HCT-116, 120 h, 5 days

As a guide, the following entries are already answered.
compound=CNC(=O)c1ccc(Nc2nc(NC3CCCCC3)c3c(-c4cnn(C)c4)n[nH]c3n2)c(OC)c1 target_or_system="HCT116 colon cancer cell line" readout_name=IC50 experimental_result="150 to 500 nM"
compound=CNC(=O)c1cccc(-c2n[nH]c3nc(Nc4ccc(N5CCOCC5)cc4OC)nc(NC4CCCCC4)c23)c1 target_or_system="HCT116 colon cancer cell line" readout_name=IC50 experimental_result="> 1000 nM"

# input Query: IC50; subject: "COc1cc(N2CCOCC2)ccc1Nc1nc(NC2CCOCC2)c2c(-c3ccncc3)n[nH]c2n1"
# output 150 to 500 nM

# input Can you share its IC50? I mean this compound: "COc1cc(-c2nncn2C)ccc1Nc1nc(NC2CCOCC2)c2c(-c3cnco3)n[nH]c2n1"
# output > 1000 nM

# input Which IC50 is listed for "CNC(=O)c1ccc(Nc2nc(NC3CCOCC3)c3c(-c4cnco4)n[nH]c3n2)c(OC)c1" ?
# output 500 to 1000 nM

# input // query IC50 value for entry "COc1cc(N2CCOCC2)ccc1Nc1nc(NC2CCCCC2)c2c(-c3cnn(C(F)F)c3)n[nH]c2n1"
# output 150 to 500 nM

# input What value of IC50 has been reported for the following compound? "COc1cc(N2CCOCC2)ccc1Nc1nc(NC2CCCCC2)c2c(-c3nncn3C)n[nH]c2n1"
# output 150 to 500 nM

# input I'd like to know its IC50. The compound in question is "COc1cc(N2CCOCC2)ccc1Nc1nc(NC2CCCCC2)c2c(-c3cnc[nH]3)n[nH]c2n1"
# output 500 to 1000 nM

# input Consider the compound "COc1ccc(Cn2nc(-c3cn[nH]c3)c3c(NC4CCCCC4)nc(Nc4ccc(N5CCOCC5)cc4OC)nc32)cc1" and give its measured IC50.
# output < 150 nM

# input Consider the compound "COc1cc(N2CCOCC2)ccc1Nc1nc(NC2CCCCC2)c2c(-c3n[nH]c(=O)o3)n[nH]c2n1" and give its measured IC50.
# output < 150 nM

###

- target or system: recombinant human TTK protein (Homo sapiens (Human), UniProt P33981)
- test protocol: Evaluation of TTK activity inhibitory ability (scintillation counting);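 also: reaction stopped with 0.5% phosphoric acid, spotted on P30 filter, TTK activity counted by scintillation, uninhibited no-compound wells taken as 100% control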
- Type: biochemical
- conditions: TTK inhibitory activity; read-out: IC50
readout name: IC50

structure_as_smiles=COc1cc(N2CCOCC2)ccc1Nc1nc(NC2CCCCC2)c2c(-c3cnoc3)n[nH]c2n1 experimental_result="< 30 nM"

# input Return reported IC50; argument: "COc1cc(N2CCOCC2)ccc1Nc1nc(NC2CCCCC2)c2c(-c3cncs3)n[nH]c2n1"
# output < 30 nM

# input Entry under review: "CNC(=O)c1ccc(Nc2nc(NC3CCOCC3)c3c(-c4cnco4)n[nH]c3n2)c(OC)c1" . Reported IC50?
# output < 30 nM

# input Item "COc1cc(N2CCOCC2)ccc1Nc1nc(NC2CCCCC2)c2c(-c3nncn3C)n[nH]c2n1" has what recorded IC50?
# output 30 to 100 nM

# input Fill in the blank: the reported IC50 of "COc1cc(N2CCOCC2)ccc1Nc1nc(NC2CCOCC2)c2c(-c3ccncc3)n[nH]c2n1" is ____.
# output < 30 nM

# input For the molecule shown here, "COc1cc(N2CCOCC2)ccc1Nc1nc(NC2CCCCC2)c2c(-c3cnn(C)c3)n[nH]c2n1" , give the reported IC50.
# output 100 to 300 nM

# input Please report the recorded IC50 for "COc1cc(N2CCOCC2)ccc1Nc1nc(NC2CCCCC2)c2c(-c3ccn(C)n3)n[nH]c2n1" .
# output < 30 nM
